assay: Cmax in Sprague-Dawley rat at 3 mg/kg, iv measured upto 24 hrs by LC-MS/MS analysis; assay type: ADME, organism-based; parameters: route intravenous, dose 3 mg/kg, time <=24; details: in vivo
measuredAttribute: Cmax (ng/mL)

>  <molSmiles>
COc1nc(-c2cccc(-c3ccccc3)c2C)ccc1CNCCO

>  <measuredAttribute>
Cmax

>  <readoutNumber>
1230

$$$$

====

assay: Tmax in Sprague-Dawley rat at 25 mg/kg, po measured upto 24 hrs by LC-MS/MS analysis; assay type: ADME, organism-based; conditions: in vivo

>  <molSmiles>
COc1nc(-c2cccc(-c3ccccc3)c2C)ccc1CNCCO

>  <Tmax (min)>
41.4

$$$$
